Test system: MS2 coat protein
Assay: apparent Kd, MS2 coat protein; higher = weaker binding; RNA-MaP array; FMN 200 µM where present
Conditions: designed as: OFF switch for flavin mononucleotide; no ligand
measured.parameter: apparent Kd (µM)

> print(dat)
                             chain.sequence  measurement
1  AAGAAGUGAGGAUAUGCUGCUCGUCACUUGCGUGAUGAGUAGCAGAAGGCACAUGAGGAUCACCCAUGUGGAAG       0.0339
2  CGCAUAUAUGUAAGGAUAUCUGCUUCGCAGAGGCAAGAGAAGGUACAUGAGGAUCACCCAUGUAUUUAAGGCGG       0.0226
3  AAGAAGUGAGGAUAUGGCCGGGUCCCUGGGUUUGGACCCGGCCAGAAGGCACAUGAGGAUCACCCAUGUAAGAA        0.024
4  AAAAAGCGAGGAUAUGCAUAAGGACCCGGGAGGGAAAUCAAACAUGAGGAUCACCCAUGUAGAAGGCGCAAAAA       0.0161

* * *

Here the recorded apparent Kd is given for each entry.
System: MS2 coat protein
Assay: apparent Kd, MS2 coat protein; higher = weaker binding; RNA-MaP array; theophylline 2 mM where present
Conditions: ligand present: theophylline; designed as: OFF switch for theophylline
measured.parameter: apparent Kd

> print(dat)
                             chain.sequence  measurement
1  AGACAUGAGGAUCACCCAUGUAGUAUGGAUACCAGAUCCAGAUUUAUCCCUUGGCAGCUGUGGUACAGCGUUGCAUCGCUCCUAG      34.5 nM
2  UUAUUUAUAAUGGAUACCAGUCGUAUGGCCCGGAAUCCUGACAUGAGGAUCACCCAUGUCGACCCUUGGCAGCUGUUAUGGGUUU      24.6 nM
3  GCUUGGGUGGCACAGCCCUGGCAGUGCGAUACCAGCACGGUAACGUGCCCUUGGCAGCGCACAUGAGGAUCACCCAUGUGGUGCG       345 nM
4  CGUAUUGUAACUGAUACCAGUGUACUGACAUGAGGAUCACCCAUGUUGGGUUUUGUUGUACACCCUUGGCAGCAGAAUCAAUACG       122 nM

* * *

Test system: MS2 coat protein
Assay: apparent Kd, MS2 coat protein; higher = weaker binding; RNA-MaP array
Details: designed as: OFF switch for flavin mononucleotide; no ligand
measured.parameter: apparent Kd (nM)

> print(dat)
                              chain.sequence  measurement.target  measured.parameter  quantity.unit  measurement
 1  CAACGACAUGAGGAUCACCCAUGUGAGGAUAUCUACUUGAUCAGGUAACUGCUUCCGAAGAGAAGGCACGGUGA    MS2 coat protein         apparent Kd             nM         20.4
 2  AAUUGAAUGGUAAGGAUAUAGGGUCGCGCCGAACGCUAGAAGGUACAUGAGGAUCACCCAUGUUGUGCGUCUUC    MS2 coat protein         apparent Kd             nM         16.9
 3  GGUUAACAUGAGGAUCACCCAUGUAAGGAUAUCGGGCUGUCCAGGCGAUAGUACACGUCGAGAAGGUACGCGGU    MS2 coat protein         apparent Kd             nM         10.8
 4  GCCGUUCGAGAGAAGGUUGUACGCGCCACGCGCACAUGAGGAUCACCCAUGUCCUCCAAACUCACAAAGGAUAUCUUAAGAACA    MS2 coat protein         apparent Kd             nM          415
 5  AAGGAGUUAGGAUAUCCGUGCGUUGACAUGAGGAUCACCCAUGUGUUGAUAAACCUACUAGGAGAAGGAACGAUAC    MS2 coat protein         apparent Kd             nM         20.7
 6  AUUUCUUCGGUCAGGAUAUCUAGUGUAACGCGGUCAGAGAAGGGACAUGAGGAUCACCCAUGUGUGACUCUCUG    MS2 coat protein         apparent Kd             nM         5.77
 7  GUACAUAUAGAGAAGGGUGAGUAUAUCAGCCUCACAGGAUAUCUGAUGAGUGACAUGAGGAUCACCCAUGUGGUUGUCGGUAGG    MS2 coat protein         apparent Kd             nM          214
 8  AUGAUCGAACAGAAGGCACGGUGACAGUUAAAGUGAGGAUAUGUAGACAUGAGGAUCACCCAUGUUACUAUACACGGGUCUAUC    MS2 coat protein         apparent Kd             nM         15.1
 9  UCCUACAAAGUCAGGAUAUUCGCACAGUCACGAGGGAAGAAGGGACAUGAGGAUCACCCAUGUAUUUACGCGUA    MS2 coat protein         apparent Kd             nM         20.4
10  CACACCGCAGUGAGGAUAUACCAACUGAACGUUGAGUAGAAGGCACAUGAGGAUCACCCAUGUCACUACUGACA    MS2 coat protein         apparent Kd             nM         8.62
11  CUAGGUCAAGGAUAUACAUGAGGAUCACCCAUGUAAGAACCUAGUAGGGUCGUCCGAGGUAGAAGGUGAGCAUU    MS2 coat protein         apparent Kd             nM         24.9
12  GAAAGGGCAAAGAAGGAGGUCCGAGCUCGGCGCCUAGGAUAUUUCUUAACCACAUGAGGAUCACCCAUGUUGACUGUAGUGUGA    MS2 coat protein         apparent Kd             nM         31.5
13  CAUAUGUUAGGAUAUAAGUUUAGAUCAUGCGUGUUUAUGGCUUAGAAGGAACAUGAGGAUCACCCAUGUAACAG    MS2 coat protein         apparent Kd             nM         21.2
14  ACGGGACAUGAGGAUCACCCAUGUUAGGAUAUACGAACUUCGCCGAACGUGACCAAUUGUAGAAGGAACUUGGU    MS2 coat protein         apparent Kd             nM         17.2
15  UCAGUGUCAGGAUAUUCUAACGAGGGUAGUGCGCCCUUUGUGAAGAAGGGACAUGAGGAUCACCCAUGUACUUG    MS2 coat protein         apparent Kd             nM         51.2

Every entry's value here was drawn from the EternaBench riboswitch data.
